METHOD: soluble on expression in E. coli; label from the status in PepcDB or PDB records
READOUT_LABEL: soluble on expression in E. coli

SEQUENCE_CODE	READOUT_LABEL	VAL
MGSDKIHHHHHHMDAIARELRTSRSTVSRLLSAARETGLVQIQIRNPLDTGPELENMIRTQYRVDVHVVPVLDTLNEAETLDRVAMQAARTIGPLVDSNAIIGVAWGSTLSAVSRHLTRKITHDSVIVQLNGAGNMQTTGITYASDIMRRFGSAYGARVEQFPVPAFFDHAATKTAMWNERSVQRILELQSRMSIAIFGVGSVDADYPSHVYAGGYLDEDDLNILANSDVVGDVATVFFRGDGSSDGITLNERSTGPALAQLRQVRRRICVVSGASKINGLRGALAAGLATDLILDEATARRLVSFDGLS	soluble on expression in E. coli	not soluble
MAEVKGMTVFNTEEVNTKKQPMFFGKPLGVQRYDNFKYPSFENLTKQQLGYFWRPEEVSLQKDRGDYQTLRPEQKHIYTSNLKYQIMLDSVQGRAPGMAFLPYCSLPELEACMEVWSFMEMIHSRSYTYVIKNVYADPSEVFDKILSDDRILSRAASVTESYDDFINEAQGWGQSNLWRDMDKSLDTSLPVLEMKEVKRKLYRAVTNVNILEGIRFYVSFACSFAFGELKVMEGSAKIISLIARDENQHLAITQNILNNWRKGDDPEMVEIMKEEEQWTYQMFEKCVNEEKMWAEYLFKDGSMIGLNDKLLHQYVEWVANRRMRSIGMKPVYDIAAKNNPLPWTEHWISSKGLQVAPQETEVESYIVGGIKQDVKKDTFAGFKL	soluble on expression in E. coli	soluble
MSLIERVRTDLYRIPLPTRLTDSTHGAMMDFELITVRIEDSDGATGLGYTYTVNHGGAAVATMVDKDLRGCLLGADAEQIEKIWQSMWWRLHYAGRGGHATSAISAVDIALWDLKGIRARTPLWKLFGGYDPVVPVYAGGIDLELPVADLKTQADRFLAGGFRAIKMKVGRPDLKEDVDRVSALREHLGDSFPLMVDANMKWTVDGAIRAARALAPFDLHWIEEPTIPDDLVGNARIVRESGHTIAGGENLHTLYDFHNAVRAGSLTLPEPDVSNIGGYTTFRKVAALAEANNMLLTSHGVHDLTVHALASVPHRTYMEAHGFGLHAYMAEPMAVTDGCVSAPDRPGHGVVLDFERLGRLAVGEGHHHHHH	soluble on expression in E. coli	soluble
MGSDKIHHHHHHMQYTELVPGTLIRRYKRFLADVALASGDVVVAHCPNTGSMRAVDVPGCRVWLSPSRNPARKLAWTWELIELPMPDAPPALVSVHTGRANALVAQALQEARIPELAGYDTHKREVRVADARLDFRLSTAHAAAYVEVKQVTLREHDGHGYFPDSVSERGRRHLEALAARVAEGDRAVLLFCVAHTGIDAVAPAAHLDPAYAETLRRVAAQGVEVLAYGMSATWTHDGVPGDIALTRALPVSLERRLASATPLSD	soluble on expression in E. coli	not soluble
MSLKEIGPNSLLLEDSHSLSQLLKKNYRWYSPIFSPRNVPRFADVSSITESPETLKAIRDFLVERYRTMSPAPTHILGFDARGFLFGPMIAVELGIPFVLMRKADKNAGLLIRSEPYEKEYKEAAPEVMTIRHGSIGKNSRVVLIDDVLATGGTALSGLQLVEASGAEVVEMVSILTIPFLKAAERIHSTAGGRYKNVRFIGLLSEDVLTEANCGDLNDYTGPRVLSCSDLLVNQ	soluble on expression in E. coli	soluble
MALVDQESCLRGFYSVFLRHCDVEPAIATFDGVRSPPDVVRLYPKPRYDYTLASAFLGTAVSGYITSRRDNAPNKNTGHRYVYTTSILIAVVTSVDTQHRSPSRCFMAMGESYFLQDEKCVFWLEHHHHHH	soluble on expression in E. coli	not soluble
AIATYPTNLEIIGGQGGSSFSFTGENNGASLEKIWVWVGGWQIKAVRAWLSDGRDETFGVPSGSHQEYVFTPGECFTSLSLWGNGAGTRLGAIKFKTNKGGEFFAHMTSWGLKTEYPMDVGSGYCLGIVGRGGSDIDCMGFMFLNAVQSTVLTNVNYPTINQLIPKVATEEIKSVSFENKTSVKQEQKVETSKKVIKTSSWSMTKSFSSTFSVEVSAGIPEIAEVSTGFSISFGVESTHSLEQTDEKNETLTTTVEVPPKKKVDVHITIGRASFDLPYTGTVKITCKNGSVLQYETKGQYKGVAYTDIKVNTVEKDL	soluble on expression in E. coli	soluble
GALVPRGSHMADPSLNNPVVIQATRLDASILPRNVFSKSYLLYVIAQGTDVGAIAGKANEAGQGAYDAQVKNDEQDVELADHEARIKQLRIDVDDHESRITANTKAITALNVRVTTAEGEIASLQTNVSALDGRVTTAENNISALQADYVSKTATTSQSLASPLNVTTSYSVGGKKVVGARQTGWTAATGTANKGVFDADLTFAVSDTYTQSEIQAIANALITERRRTKAMEDALRAHGLID	soluble on expression in E. coli	soluble
MSLSVSLVYRKARPDDWKGILELYNSLSDDDLYLRFFTFHKLTEEEARKIADTKEHYTVIAEINGKIVGEASIYFDGEFAVVVHPDYRRLGIGTELVKRLIEFAKKNGIKKVRFYTLPENYPMIKIGKKLGFKIIEREDEVYAYLDLTNENVILEKT	soluble on expression in E. coli	soluble
MGSDKIHHHHHHMEKEIAIITLHGMGDYKPNYFEALKNQLEKKLGTKWDKIAFEPVQYQPILQQNQIKIWQRMNSYPLDGSILRRFLLFGFSDAGSLEYSARSKVSVQYIEVQKEIMQALDKLYVELGNNDKPVIIIAQSLGCQVISNYIWDAKHDSGIFNGLEPDASAQLKSFRRLNSCVHLLTTGCNIPMFVAGLNPIEAIQKPNNEFTWFNYYDRDDVLGWPLSPLSDSYGALVKDHEINAGGIFSSWNPWSHGQYWTDKDVLNSLIDRIRRYI	soluble on expression in E. coli	not soluble
MNSNMVFARVNEADVTEAILDGFYSSLKKHLRSDVIVVGAGPAGLTAAWRLAEAGARVLIVEQNNYLGGGLWLGGYFMNPVTIRAPAQRILDELEVPYEAVKPGLYRTKGPLLAAKLAARALEAGAEVLNLTMLDDVIVENSRVAGVVVNWSPVQGLPRQITCVDPVGLRAEYVVDATGHDAVVTRKLAERGMVEASKLGPMWVERSEDLVVEKTGEVYPGLVVAGIAVAEVYGLPRMGPTFGAMLLSGEKAAALIGEKLGLKVKVAAAPASQA	soluble on expression in E. coli	soluble

* * *

METHOD: soluble on expression in E. coli; label from the status in PepcDB or PDB records

SEQUENCE_CODE	soluble on expression in E. coli
MGSDKIHHHHHHMIDKLEFFLALARERHFGRAAEECGVTQPTLSAAIRQLEEQLGVILVNRGSRFQGLTPEGQRVLEWARRIVSDSRTMREEMRAARKGLSGHMRLAAVPTTLSMVPLITAPFQEKHPDVTFSVLSTTSLQILALLENLEIDAGLTYLENEPLGRVTSVPLQIEQYHLVTAAGTALSDRESVTWKEVSDIRLCLLTADMQNRRIINQHFAEAGAVPKPTLESNSMIVLFSHVRTGRWASIMPYNVAKSFGFHEDIRMIPIVDPDVRHTVGLVATYREPFTPLVSALLHEARILGERNQVQ	not soluble
MNVPGAAPFLTAQSEEEATEVLESIHPDPEKSGARYIMSDERMAVDIFMAMPEWTLDTEGYMQPYWTGDGYQYLPSKRYFDSMESRLHFLDGNGLKQYRLVYETWAYQTQEAGYKQVYNFLYGSSIPEVDSGYVKIFEYVKGAKITGTVSPNETVNINTTILTGQGRTFELEHHHHHH	soluble
MSSKLVLVLNCGSSSLKFAIIDAVNGEEYLSGLAECFHLPEARIKWKMDGNKQEAALGAGAAHSEALNFIVNTILAQKPELSAQLTAIGHRIVHGGEKYTSSVVIDESVIQGIKDAASFAPLHNPAHLIGIEEALKSFPQLKDKNVAVFDTAFHQTMPEESYLYALPYNLYKEHGIRRYGAHGTSHFYVTQEAAKMLNKPVEELNIITCHLGNGGSVSAIRNGKCVDTSMGLTPLEGLVMGTRSGDIDPAIIFHLHDTLGMSVDAINKLLTKESGLLGLTEVTSDCRYVEDNYATKEDAKRAMDVYCHRLAKYIGAYTALMDGRLDAVVFTGGIGENAAMVRELSLGKLGVLGFEVDHERNLAARFGKSGFINKEGTRPAVVIPTNEELVIAQDASRLTA	soluble
MLEILYQDEWLVAVNKPSGWLVHRSWLDRDEKVVVMQTVRDQIGQHVFTAHRLDRPTSGVLLMGLSSEAGRLLAQQFEQHQIQKRYHAIVRGWLMEEAVLDYPLVEELDKIADKFAREDKGPQPAVTHYRGLATVEMPVATGRYPTTRYGLVELEPKTGRKHQLRRHLAHLRHPIIGDSKHGDLRQNRSGAEHFGLQRLMLHASQLSLTHPFTGEPLTIHAGLDDTWMQALSQFGWRGLLPENERVEFSAPSGQDGEISSLEHHHHHH	not soluble
MLNNDVLRSLRYLLDLPDAHLAELAARFGEQVEADLLEAYLKKEDEDGFQACPDRYLARCLDGLIIQRRGRDESRPLPPLELPLSNNMILKKLRVAFELKEEDLHAILDSVDFPVSKPELSALFRKPGHSNYRTCGDQLLRNFLKGLTLRVRG	not soluble
MVKRREAFEIEGKRVIAGSQMGIKLPAAKLYTDTQLDIHVEVFHGVKPGPTLLVCAAIHGDELNGIEICRRLLGRVNPKNLAGTLIVVPIVNVFGFIQQSRYLPDRRDLNRCFPGSSKGALASRLANLFATQLLVHATHVIDLHTGAIHRDNLPQIRCDTNDETMLAMANAFGAPLIMHSKARSVSMRGYANQQGIPCILYEAGEALRFSELAIKSGLKGVLNVMRSLGMLKGRVSNKIASVSAIRSYWIRSESDGLVNMKLKLGQRVNKGYIIAHIVSPHGGDSVAIRAPTDGIIIGISNIPVTNEGEGMFHIAQFEGDEIEIANEQLDEFLMEYA	not soluble
